The following compounds are listed with their measured inhibition at 1 µM values.
# Subject Of Test: hNAMPT protein (Homo sapiens (Human), UniProt P43490)
# Sequence (P43490 whole entry): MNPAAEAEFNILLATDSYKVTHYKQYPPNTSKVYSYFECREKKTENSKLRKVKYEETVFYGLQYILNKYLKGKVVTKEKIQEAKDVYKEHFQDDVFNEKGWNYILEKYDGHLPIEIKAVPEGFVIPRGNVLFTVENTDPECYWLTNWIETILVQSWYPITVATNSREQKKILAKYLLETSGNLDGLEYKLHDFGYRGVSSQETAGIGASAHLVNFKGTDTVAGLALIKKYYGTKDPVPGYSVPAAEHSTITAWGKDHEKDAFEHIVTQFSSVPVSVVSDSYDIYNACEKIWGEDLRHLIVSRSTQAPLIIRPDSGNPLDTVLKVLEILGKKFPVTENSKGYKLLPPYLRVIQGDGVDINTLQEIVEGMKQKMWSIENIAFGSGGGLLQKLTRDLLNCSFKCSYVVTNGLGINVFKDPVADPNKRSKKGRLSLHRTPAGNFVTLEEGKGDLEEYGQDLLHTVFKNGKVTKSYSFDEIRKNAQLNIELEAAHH
# Experiment Notes: NAMPT enzyme assay (TR-FRET/HTRF, BodiPY ligand, anti 6His-Tb)
# Type: binding
# Condition Details: compound concentration 1 μM; read-out: Percent Inhibition
# From the text: As discussed above, the invention provides compounds that are useful as inhibitors of the enzyme NAMPT. The NAMPT inhibition of a compound of the invention can be measured using a variety of methods known in the art. […] The TR-FRET signal can be measured using a high throughput microplate reader (e.g., Pherastar). […] The percent inhibition value at a single concentration of compound of the invention can be calculated relative to a control treated sample. […]
Your answer is read as %, so omit the unit and give the number.

Solved cases below.
O=C(NCCCn1ccnc1)c1ccc2nc(-c3ccc4cc[nH]c4c3)c(-c3ccccc3)nc2c1 [Compound I-208]; 55
CC(=O)N1CCN(c2nc3cc(C(=O)NCCCn4ccnc4)ccc3nc2-c2ccccc2)CC1 [Compound I-168]; 84
O=C(NCCCc1ncc[nH]1)c1ccc2nc(N3CCCC3)c(-c3ccc(Cl)cc3)nc2c1 [Compound I-116]; 98

input: Any idea what its inhibition at 1 µM is? The compound is O=C(NCCCc1ncc[nH]1)c1ccc2nc(N3CCS(=O)(=O)CC3)c(-c3ccc(F)cc3)nc2c1 [Compound I-287]
output: 98

input: Any idea what its inhibition at 1 µM is? The compound is N#Cc1cccc(-c2nc3cc(C(=O)NCCCn4ccnc4)ccc3nc2-c2ccccc2)c1 [Compound I-157]
output: 40

----------
# Subject Of Test: hNAMPT protein (Homo sapiens (Human), UniProt P43490)
# Experiment Notes: NAMPT enzyme assay (TR-FRET/HTRF, BodiPY ligand, anti 6His-Tb)
# Format: binding
# Condition Details: NAMPT IC50 range class; read-out: IC50
The following molecules are listed with their measured IC50 values.

Solved cases below.
O=C(NCCCn1ccnc1)c1ccc2nc(N3CCC(N4CCNC4=O)CC3)c(-c3ccccc3)nc2c1; 100 to 500 nM
O=C(NCCCc1ncc[nH]1)c1ccc2nc(-c3ccc(F)cc3)c(-c3ccc(Cl)c(C(F)(F)F)c3)nc2c1; < 100 nM
COc1cccc(-c2nc3cc(C(=O)NCCCc4cccnc4)ccc3nc2N2CCC(O)CC2)c1; < 100 nM
CC(C)Oc1nc2ccc(C(=O)NCCCc3ncc[nH]3)cc2nc1-c1ccc(Cl)cc1; < 100 nM
O=C(NCCCc1cncnc1)c1ccc2nc(N3CCOCC3)c(-c3ccc(F)cc3)nc2c1; 100 to 500 nM
O=C(NCCCn1ccnc1)c1ccc2nc(C3=CCCCC3)c(-c3ccccc3)nc2c1; 100 to 500 nM
O=C(NCCCc1ncc[nH]1)c1ccc2nc(N3CC4(CCOCC4)C3)c(-c3ccc(F)cc3)nc2c1; < 100 nM
Cn1ccc(CCNC(=O)c2ccc3nc(-c4ccc(F)cc4)c(-c4ccc(F)cc4)nc3c2)n1; 1000 to 2000 nM
COC1CCN(c2nc3ccc(C(=O)NCCCc4ncc[nH]4)cc3nc2-c2ccc(F)cc2)CC1; < 100 nM
O=C(NCCCc1ccnnc1)c1ccc2nc(N3CCCCC3)c(-c3ccc(F)cc3)nc2c1; < 100 nM

input: Any idea what its IC50 is? The molecule is `CC(C)Oc1c2c(nn1C)CCN(C(=O)c1ccc3nc(-c4ccc(F)cc4)c(-c4ccc(F)cc4)nc3c1)C2`
output: 2000 to 10000 nM

input: Any idea what its IC50 is? The molecule is `O=C(NCCCn1nnnc1S)c1ccc2nc(-c3ccc(F)cc3)c(-c3ccc(F)cc3)nc2c1`
output: 1000 to 2000 nM

input: Any idea what its IC50 is? The molecule is `O=C(NCCCc1ncc[nH]1)c1ccc2nc(N3CCC(N4CCOCC4)CC3)c(-c3ccccc3)nc2c1`
output: < 100 nM

input: Any idea what its IC50 is? The molecule is `O=C(NCCCc1ncc[nH]1)c1ccc2nc(C3CCOCC3)c(-c3ccc(F)cc3)nc2c1`
output: 500 to 1000 nM

input: Any idea what its IC50 is? The molecule is `O=C(NCCOc1cccnc1)c1ccc2nc(N3CCC(O)CC3)c(-c3ccc(F)cc3)nc2c1`
output: < 100 nM

input: Any idea what its IC50 is? The molecule is `NCc1cccc(-c2nc3cc(C(=O)NCCCn4ccnc4)ccc3nc2-c2ccccc2)c1`
output: 2000 to 10000 nM

----------
# Subject Of Test: hNAMPT protein (Homo sapiens (Human), UniProt P43490)
# Experiment Notes: NAMPT enzyme assay (TR-FRET/HTRF, BodiPY ligand, anti 6His-Tb)
# Type: binding
# Condition Details: NAMPT IC50 range class; read-out: IC50
The following compounds are listed with their measured IC50 values.

input: Any idea what its IC50 is? The compound is O=C(NCCCc1nnc[nH]1)c1ccc2nc(-c3ccc(F)cc3)c(-c3ccc(F)cc3)nc2c1 [Compound I-387]
output: 500 to 1000 nM

input: Any idea what its IC50 is? The compound is O=C(NCCCc1ncc[nH]1)c1ccc2nc(-c3ccc(F)cc3)c(-c3ccc(F)cc3F)nc2c1 [Compound I-373]
output: 100 to 500 nM

input: Any idea what its IC50 is? The compound is CC(C)Oc1nc2ccc(C(=O)NCCCc3ncc[nH]3)cc2nc1-c1ccc(Cl)s1 [Compound I-334]
output: < 100 nM

input: Any idea what its IC50 is? The compound is O=C(NCCCc1ncc[nH]1)c1ccc2nc(-c3ccc(F)cc3)c(-c3ccc(F)cc3)nc2c1 [Compound I-178]
output: < 100 nM

input: Any idea what its IC50 is? The compound is COc1nccc(-c2nc3cc(C(=O)NCCCc4ncc[nH]4)ccc3nc2-c2ccc(F)cc2)c1F [Compound I-391]
output: 100 to 500 nM

----------
The following molecules are listed with their measured pIC50 values.
# Subject Of Test: hNAMPT protein (Homo sapiens (Human))
# Experiment Notes: NAMPT enzyme assay (TR-FRET/HTRF, BodiPY ligand, anti 6His-Tb)
# Format: binding
# Condition Details: NAMPT IC50 range class; read-out: IC50
pIC50: −log10 of the molar value.

Solved cases below.
CC(Oc1nc2ccc(C(=O)NCCCc3ncc[nH]3)cc2nc1-c1ccc(F)cc1)c1ccccc1 (stereo not drawn); > 7.00
CC(C)(C)OC(=O)N1CCC(C2CCN(c3nc4ccc(C(=O)NCCn5ccnc5)cc4nc3-c3ccccc3)CC2)CC1; 5.00 to 5.70
CCN(CC)c1nc2cc(C(=O)NCCCn3ccnc3)ccc2nc1-c1ccccc1; 5.00 to 5.70
O=C(NCCc1c[nH]cn1)c1ccc2nc(-c3ccccc3)c(-c3ccccc3)nc2c1; 5.00 to 5.70
COc1ccc(-c2nc3cc(C(=O)NCCCn4ccnc4)ccc3nc2-c2ccccc2)cc1; 6.00 to 6.30

input: Any idea what its pIC50 is? The molecule is `CC(C)Oc1nc2ccc(C(=O)NCCCc3ncc[nH]3)cc2nc1-c1ccc(F)c(F)c1`
output: > 7.00

input: Any idea what its pIC50 is? The molecule is `O=C(NCCCc1cncnc1)c1ccc2nc(N3CCCCC3)c(-c3ccc(F)cc3)nc2c1`
output: 6.30 to 7.00

input: Any idea what its pIC50 is? The molecule is N#CC1CCN(c2nc3ccc(C(=O)NCCCn4ccnc4)cc3nc2-c2ccccc2)C1 (stereo not drawn)
output: 6.00 to 6.30

input: Any idea what its pIC50 is? The molecule is `O=C(NCCCn1ccnc1)c1ccc2nc(-c3ccccc3)c(-c3cccc(OC(F)(F)F)c3)nc2c1`
output: 6.00 to 6.30
